biological target: NS3h-dT20 complex (Hepatitis C virus genotype 1b); test: DSC of pre-assembled NS3h-dT20 complex
Sequence (Q9WMX2 1192-1657, one chain of several): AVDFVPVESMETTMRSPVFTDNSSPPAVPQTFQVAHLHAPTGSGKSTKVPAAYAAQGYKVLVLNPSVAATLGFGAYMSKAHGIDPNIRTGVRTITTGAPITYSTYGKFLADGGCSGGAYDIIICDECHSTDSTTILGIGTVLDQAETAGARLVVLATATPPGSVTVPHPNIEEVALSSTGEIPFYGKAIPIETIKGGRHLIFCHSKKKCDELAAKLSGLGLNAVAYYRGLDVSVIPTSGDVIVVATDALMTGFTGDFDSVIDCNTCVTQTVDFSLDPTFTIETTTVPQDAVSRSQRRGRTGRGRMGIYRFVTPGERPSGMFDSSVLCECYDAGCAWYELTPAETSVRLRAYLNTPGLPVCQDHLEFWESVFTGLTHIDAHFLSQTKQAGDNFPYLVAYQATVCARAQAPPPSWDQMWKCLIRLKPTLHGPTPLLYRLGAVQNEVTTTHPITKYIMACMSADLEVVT
measure-name: EC50

So what EC50 did "O=C(O)C1=CC(=C(c2ccc(O)c(C(=O)O)c2)c2ccc(O)c(C(=O)O)c2)C=CC1=O" get with NS3h-dT20 complex (Hepatitis C virus genotype 1b)?
~500 µM

###

molecular target: UniProt Q9WMX2; assay: ATPase assay 1: DNA; format: biochemical
measure-name: Ki (µM)
Numbers only, in µM.

// returns reported Ki for input "O=C(O)C1=CC(=C(c2ccc(O)c(C(=O)O)c2)c2ccc(O)c(C(=O)O)c2)C=CC1=O"
1.4

###

molecular target: NS3h (Hepatitis C virus genotype 1b); test: ATPase assay 2: NS3h-catalyzed ATP hydrolysis in the absence of nucleic acids; type: biochemical
Sequence (Q9WMX2 1192-1657): as the sequence (Q9WMX2 1192-1657, one chain of several) above
measure-name: pKi
One number for each entry, as −log10 of the molar value.

Given "O=C(O)C1=CC(=C(c2ccc(O)c(C(=O)O)c2)c2ccc(O)c(C(=O)O)c2)C=CC1=O" , state its recorded pKi.
6.35
